Origin of measurements: the METLIN SMRT retention time set (Domingo-Almenara et al. 2019)

# ASSAY: gradient 5% acetonitrile 3 min, to 50% in 2 min, to 85% in 15 min, held 3 min, 100 µL/min
# STATED_CONDITIONS: column: Zorbax Extend-C18 2.1 x 50 mm; eluents: water / acetonitrile, 0.1% formic acid
REPORTED_METRIC: RP-LC retention time
Number plus unit, in that order.

Record excerpt, results attached:
- CCCN(CC1CCOC1)C(=O)Nc1cc(Cl)ccc1OC (stereo not drawn): 961 s
- CC(C)COc1cc(=O)n2c(c1C(=O)NCCCn1cccn1)CCCCC2: 659 s

Attention now turns to another entry.
Task: Answer with reported RP-LC retention time of `O=C(NCCc1nc2cccnc2n1-c1ccccc1)C1CCCCC1`
Output: 730 s

---

Catalogue of RP-LC retention time values
# ASSAY: gradient 5% acetonitrile 3 min, to 50% in 2 min, to 85% in 15 min, held 3 min, 100 µL/min
# STATED_CONDITIONS: column: Zorbax Extend-C18 2.1 x 50 mm; eluents: water / acetonitrile, 0.1% formic acid
Number plus unit, in that order.

Task: Answer with reported RP-LC retention time of `O=C(CCC(=O)N1CCOc2ccccc21)Nc1c(F)c(F)c(F)c(F)c1F`
Output: 912 s

Task: Answer with reported RP-LC retention time of `Cc1ccnc(OCC(=O)Nc2cc(C)on2)n1`
Output: 612 s

Task: Answer with reported RP-LC retention time of `COc1ccc(-c2coc3cc(OC(=O)c4ccc5c(c4)OCO5)ccc3c2=O)cc1OC`
Output: 981 s

Task: Answer with reported RP-LC retention time of `CCc1ccc(OCc2ccc(C(=O)Nc3nc(-c4ccccc4)cs3)o2)cc1`
Output: 1270 s

---

Catalogue of RP-LC retention time values
# ASSAY: gradient 5% acetonitrile 3 min, to 50% in 2 min, to 85% in 15 min, held 3 min, 100 µL/min
# STATED_CONDITIONS: column: Zorbax Extend-C18 2.1 x 50 mm; eluents: water / acetonitrile, 0.1% formic acid
Number plus unit, in that order.

* CC(C)(C)c1cccc(NC(=O)C2CCc3nc(N4CCOCC4)ncc3C2)c1 (stereo unspecified) | 945 s

Task: Answer with reported RP-LC retention time of `O=c1c2sccc2n(Cc2nc(-c3ccc(F)c(Br)c3)no2)c(=O)n1-c1ccccc1`
Output: 961 s

Task: Answer with reported RP-LC retention time of `CC(=O)N(Cc1nn(C)c2c1CN(S(=O)(=O)c1ccc(Cl)cc1)CC2)c1ccccc1`
Output: 844 s

Task: Answer with reported RP-LC retention time of `CCC(=O)NCc1nc2c(n1CC)CN(C(=O)c1ccc(C(F)(F)F)cc1)CC2`
Output: 614 s

Task: Answer with reported RP-LC retention time of `CC(C)NC(=O)c1c2c(cn(-c3ccccc3)c1=O)C(=O)CC(C)(C)C2`
Output: 878 s

---

Catalogue of RP-LC retention time values
# ASSAY: gradient 5% acetonitrile 3 min, to 50% in 2 min, to 85% in 15 min, held 3 min, 100 µL/min
# STATED_CONDITIONS: column: Zorbax Extend-C18 2.1 x 50 mm; eluents: water / acetonitrile, 0.1% formic acid
Your answer is read as s, so omit the unit and give the number.

Record excerpt, results attached:
• CCc1noc(-c2cc(=O)n(CC(=O)NCc3ccccc3OC)c3ccccc23)n1 = 900
• CC(=O)N1c2ccc(S(=O)(=O)NCc3ccc4c(c3)CCN4C(=O)CC(C)C)cc2CC1C (configuration not stated) = 874
• CCCc1cc(N2CCN(C(=O)c3ccco3)CC2)nc2nnc(C)n12 = 868
• CCc1nc2onc(C)c2c(=O)n1CC(=O)NCCCc1ccccc1 = 844
• Cc1c(CNCc2ccccn2)c(C(=O)O)c(C)n1Cc1ccc(F)cc1 = 670
• COc1ccc(NC(=O)C2CCc3sc(C(=O)N4CCCC4)cc3C2)c(OC)c1 (configuration not stated) = 756
• Cc1nc(-c2cc(S(=O)(=O)N3CCC(C(=O)N4CCOCC4)CC3)c(C)s2)no1 = 742
• O=C(NC1CCN(Cc2ccccc2)CC1)C1CCCN(c2cnc3nccnc3c2)C1 (configuration not stated) = 907

Attention now turns to another entry.
Task: Answer with reported RP-LC retention time of `O=C(Nc1cccc(N2CCCCC2=O)c1)c1ccc(Br)o1`
Output: 680
